# assayed-target: human GLP-1 receptor (human, UniProt P43220 24-463)
# protocol-notes: cell-based or functional assay
Bridges are numbered along the chain shown (N, C = ends). Where no end group is shown, it is not given here. [ ]: non-standard residue; d: D form. The star is where a group is joined. Acetyl(2-(4-imidazolyl)) = O=C(Cc1c[nH]cn1)*; Aib = CC(C)(N)C(=O)O
Each entry gets not fulfilled if its In vitro activity relative to native peptide (%) vs. GLP-1 stays under 40%, and fulfilled if its In vitro activity relative to native peptide (%) vs. GLP-1 is 40% or above.

These recorded examples may help you get a feel for the data.
binder	assigned-label
H[Aib]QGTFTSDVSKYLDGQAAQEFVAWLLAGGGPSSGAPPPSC [triple agonist of SEQ ID NO: 10]	fulfilled
H[Aib]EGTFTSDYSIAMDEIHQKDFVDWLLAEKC (bridge 16-20) [triple agonist of SEQ ID NO: 80]	not fulfilled

Challenge: Does the reported In vitro activity relative to native peptide (%) vs. GLP-1 for [Acetyl(2-(4-imidazolyl))][Aib]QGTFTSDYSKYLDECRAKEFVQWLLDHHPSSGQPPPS (bridge 16-20; not fully specified) [triple agonist of SEQ ID NO: 73] fall at or above the 40% mark?
Response given: not fulfilled

Challenge: Does the reported In vitro activity relative to native peptide (%) vs. GLP-1 for H[Aib]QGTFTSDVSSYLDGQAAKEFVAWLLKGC [triple agonist of SEQ ID NO: 6] fall at or above the 40% mark?
Response given: not fulfilled

Challenge: Determine whether measured In vitro activity relative to native peptide (%) vs. GLP-1 meets or exceeds 40% for H[Aib]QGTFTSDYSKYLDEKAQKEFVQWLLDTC (bridge 16-20) [triple agonist of SEQ ID NO: 30]
Response given: fulfilled

Challenge: Does Y[Aib]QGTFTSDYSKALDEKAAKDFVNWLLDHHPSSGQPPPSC (lactam 16-20) [triple agonist of SEQ ID NO: 99] have a reported In vitro activity relative to native peptide (%) vs. GLP-1 of at least 40%?
Response given: not fulfilled
